FYI, the data here is from ChEMBL document CHEMBL1152855.

# Tested on: CAKI-1
# ASSAY_REMARKS: Growth inhibition of human Caki1 cells at 10 uM after 48 hrs by sulforhodamine B assay
# Type: functional
# CONDITION_LABEL: CAKI-1, 48 h, values are per cent of control
We begin with a simple list: items and their reported growth, % of control at 10 µM.

STRUCTURE	growth, % of control at 10 µM / %
[3H]N1C(=O)[C@@]2(c3ccccc31)N(C)C[C@@H](c1ccc(OC)cc1)[C@@]21Cc2ccccc2C1=O	85.7
[3H]N1C(=O)[C@@]2(c3ccccc31)N(C)C[C@@H](c1ccc(Cl)cc1)[C@@]21Cc2ccccc2C1=O	80
[3H]C([3H])([3H])N1C(=O)[C@@]2(c3ccccc31)N(C)C[C@@H](c1ccc(OC)cc1)[C@@]21Cc2ccccc2C1=O	91.1
[3H]C([3H])([3H])N1C(=O)[C@@]2(c3ccccc31)N(C)C[C@@H](c1cccs1)[C@@]21Cc2ccccc2C1=O	106
[3H]C([3H])([3H])N1C(=O)[C@@]2(c3ccccc31)N(C)C[C@@H](c1ccc(Cl)cc1)[C@@]21Cc2ccccc2C1=O	71.8
[3H]N1C(=O)[C@@]2(c3ccccc31)N(C)C[C@@H](c1cccs1)[C@@]21Cc2ccccc2C1=O	106

###

We begin with a simple list: items and their reported growth, % of control at 10 µM.
# System: HOP-62
# ASSAY_REMARKS: Growth inhibition of human HOP62 cells at 10 uM after 48 hrs by sulforhodamine B assay
# Type: functional
# CONDITION_LABEL: HOP-62, 48 h, values are per cent of control

STRUCTURE	growth, % of control at 10 µM, %
[3H]N1C(=O)[C@@]2(c3ccccc31)N(C)C[C@@H](c1ccc(OC)cc1)[C@@]21Cc2ccccc2C1=O	100
[3H]N1C(=O)[C@@]2(c3ccccc31)N(C)C[C@@H](c1cccs1)[C@@]21Cc2ccccc2C1=O	110
[3H]C([3H])([3H])N1C(=O)[C@@]2(c3ccccc31)N(C)C[C@@H](c1ccc(Cl)cc1)[C@@]21Cc2ccccc2C1=O	88.1
[3H]N1C(=O)[C@@]2(c3ccccc31)N(C)C[C@@H](c1ccc(Cl)cc1)[C@@]21Cc2ccccc2C1=O	87.5
[3H]C([3H])([3H])N1C(=O)[C@@]2(c3ccccc31)N(C)C[C@@H](c1cccs1)[C@@]21Cc2ccccc2C1=O	99.9
[3H]C([3H])([3H])N1C(=O)[C@@]2(c3ccccc31)N(C)C[C@@H](c1ccc(OC)cc1)[C@@]21Cc2ccccc2C1=O	88.2

###

# Tested on: SF-539
# ASSAY_REMARKS: Growth inhibition of human SF539 cells at 10 uM after 48 hrs by sulforhodamine B assay
# Assay type: functional
# CONDITION_LABEL: SF-539, 48 h, values are per cent of control

STRUCTURE	growth, % of control at 10 µM
[3H]C([3H])([3H])N1C(=O)[C@@]2(c3ccccc31)N(C)C[C@@H](c1ccc(OC)cc1)[C@@]21Cc2ccccc2C1=O	99.9%
[3H]N1C(=O)[C@@]2(c3ccccc31)N(C)C[C@@H](c1cccs1)[C@@]21Cc2ccccc2C1=O	109%
[3H]C([3H])([3H])N1C(=O)[C@@]2(c3ccccc31)N(C)C[C@@H](c1cccs1)[C@@]21Cc2ccccc2C1=O	112%
[3H]N1C(=O)[C@@]2(c3ccccc31)N(C)C[C@@H](c1ccc(Cl)cc1)[C@@]21Cc2ccccc2C1=O	107%
[3H]N1C(=O)[C@@]2(c3ccccc31)N(C)C[C@@H](c1ccc(OC)cc1)[C@@]21Cc2ccccc2C1=O	101%
[3H]C([3H])([3H])N1C(=O)[C@@]2(c3ccccc31)N(C)C[C@@H](c1ccc(Cl)cc1)[C@@]21Cc2ccccc2C1=O	90.5%
